Origin of the recorded values: patent US11472855

- tgt: T1, hPUF_MT(R2_N12S,Q16R, R3→R5, R4→R6) (R2 repeat N12S,Q16R)
- T1 chain: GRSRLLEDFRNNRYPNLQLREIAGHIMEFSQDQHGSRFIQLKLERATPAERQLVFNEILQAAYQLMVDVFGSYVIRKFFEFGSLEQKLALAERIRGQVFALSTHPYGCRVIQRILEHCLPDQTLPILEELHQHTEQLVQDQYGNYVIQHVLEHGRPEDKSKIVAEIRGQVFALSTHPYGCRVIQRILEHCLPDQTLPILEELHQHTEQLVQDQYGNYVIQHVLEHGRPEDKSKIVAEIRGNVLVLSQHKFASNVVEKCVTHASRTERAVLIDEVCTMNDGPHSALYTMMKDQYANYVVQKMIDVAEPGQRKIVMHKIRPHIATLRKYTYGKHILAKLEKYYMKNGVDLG
- test_summary: EMSA; binds C exclusively
- applied_conditions: label: Alexa680 at 5' and 3'
recorded_metric: binding result

* CCAGAAUUGUAUAAAUUCG (ssRNA) [OTS-2023] | no binding
* CCAGAAUUGUAUAGAUUCG (ssRNA) [OTS-2024] | no binding
* CCAGAAUUGUAUAUAUUCG (ssRNA) [OTS-1511] | no binding
* CCAGAAUUGUAUACAUUCG (ssRNA) [OTS-2025] | binds
